Can you tell me pIC50 for the items I'm about to list?
Biological target: JAK1 (recombinant purified GST-tagged catalytic domain) (Homo sapiens (Human))
Sequence (P23458 875-1153): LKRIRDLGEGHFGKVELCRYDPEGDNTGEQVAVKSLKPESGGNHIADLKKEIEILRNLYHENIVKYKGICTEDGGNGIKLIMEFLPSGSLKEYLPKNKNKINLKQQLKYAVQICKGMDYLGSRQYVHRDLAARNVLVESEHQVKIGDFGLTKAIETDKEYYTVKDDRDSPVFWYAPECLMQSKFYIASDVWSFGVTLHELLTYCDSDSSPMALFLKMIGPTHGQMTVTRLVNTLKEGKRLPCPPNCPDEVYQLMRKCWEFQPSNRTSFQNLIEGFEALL
Assay: Jak Biochemical HTRF Assay (JAK1)
Conditions: [ATP] 31.8 μM
Give bare numbers, as −log10 of the molar value.

molecule	target.system	pIC50
CC(C)(C)OC(=O)[C@@H]1CC[C@@](CC#N)(n2nc(Nc3ccc(C(O)(C(C)(C)C)C(F)(F)F)cc3)c3c(=O)[nH]ccc32)CO1 (single isomer, unassigned) [Example 5-166]	JAK1 (recombinant purified GST-tagged catalytic domain) (Homo sapiens (Human))	8.89
CC(C)(C)OC(=O)N1CC(CC#N)(n2nc(Nc3ccccc3)c3c(=O)[nH]ccc32)C1 [Example 1-1]	JAK1 (recombinant purified GST-tagged catalytic domain) (Homo sapiens (Human))	8.65
COC1CN([C@H]2CC[C@](CC#N)(n3nc(Nc4ccc(Cl)cc4)c4c(=O)[nH]ccc43)CC2)C1 [Example 18-8]	JAK1 (recombinant purified GST-tagged catalytic domain) (Homo sapiens (Human))	10.52
CC1CCN1S(=O)(=O)c1ccc(Nc2nn([C@]3(CC#N)CCCOC3)c3cc[nH]c(=O)c23)cc1 (single isomer, unassigned) [Example 5-109]	JAK1 (recombinant purified GST-tagged catalytic domain) (Homo sapiens (Human))	9.60

Give pIC50 for each listed item.
1. N#CC[C@]1(n2nc(Nc3ccc(OC(F)(F)F)cc3)c3c(=O)[nH]ccc32)CC[C@H](NC2CCCCC2)CC1 [Example 18-19]
2. CN(C)S(=O)(=O)c1ccc(Nc2nn(C3(CC#N)CCN(C(=O)c4ccc(Cl)cc4)CC3)c3cc[nH]c(=O)c23)cc1 [Example 9-13]

OUTPUT:
1: 9.43; 2: 8.97

Below are 2 molecules. Give each one its pIC50.
1. CC(C)(C)OC(=O)N1CCC(CC#N)(n2nc(Nc3cc(Cn4ccnn4)cc(Cn4ccnn4)c3)c3c(=O)[nH]ccc32)CC1 [Example 5-62]
2. CN(C)S(=O)(=O)c1ccc(Nc2nn(C3(CC#N)CCN(C(=O)OCC(C)(C)C)CC3)c3cc[nH]c(=O)c23)cc1 [Example 10-4]

OUTPUT:
1. 9.51
2. 9.35

Provide pIC50 for all items below, preserving their order.
1. CC(C)(C)OC(=O)N1CC[C@](CC#N)(n2nc(Nc3ccccc3)c3c(=O)[nH]ccc32)[C@H](F)C1 [Example 5-19]
2. CC(C)(C)OC(=O)[C@@H]1CC[C@@](CC#N)(n2nc(Nc3ccc4c(c3)NC(=O)C4(C)C)c3c(=O)[nH]ccc32)CO1 [Example 21-3]
3. CC(C)(C)S(=O)(=O)c1ccc(Nc2nn([C@@]3(CC#N)CCOC3)c3cc[nH]c(=O)c23)cc1 (single isomer, unassigned) [Example 5-249]
4. N#CCC1(n2nc(Nc3ccc(C(F)(F)F)cc3)c3c(=O)[nH]ccc32)CCC(N2CC(F)C2)CC1 (single isomer, unassigned) [Example 18-2]
5. CC(C)(C)OC(=O)[C@@H]1CC[C@@](CC#N)(n2nc(Nc3ccc4c(c3)CN(CC(F)(F)F)C4=O)c3c(=O)[nH]ccc32)CO1 [Example 5-95]

OUTPUT:
1. 10.10
2. 10.15
3. 8.95
4. 8.17
5. 10.15
